The listing below reports log10 of Kd for molecules tested on CYP125 (Mycobacterium tuberculosis, UniProt P9WPP1).
Sequence (P9WPP1 18-433 limits assumed): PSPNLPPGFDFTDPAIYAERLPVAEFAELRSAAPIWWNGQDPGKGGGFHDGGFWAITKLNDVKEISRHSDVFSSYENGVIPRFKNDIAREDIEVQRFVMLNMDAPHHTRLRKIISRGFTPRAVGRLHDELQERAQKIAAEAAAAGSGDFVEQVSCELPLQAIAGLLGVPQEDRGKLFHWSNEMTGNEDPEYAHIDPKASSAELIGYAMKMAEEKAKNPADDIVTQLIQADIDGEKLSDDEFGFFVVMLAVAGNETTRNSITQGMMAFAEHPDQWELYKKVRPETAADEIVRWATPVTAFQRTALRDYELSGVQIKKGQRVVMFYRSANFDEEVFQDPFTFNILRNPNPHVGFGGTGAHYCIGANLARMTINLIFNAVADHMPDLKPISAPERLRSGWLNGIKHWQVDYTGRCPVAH
Measured Quantity: log10 of Kd (log10 of the value in µM)

- Compound: "c1cc(-c2ccc3c(ccn3CCN3CCNCC3)c2)ccn1"
  Target Or System: "CYP125 (Mycobacterium tuberculosis, UniProt P9WPP1)"
  Measured Quantity: "log10 of Kd"
  Result Value: 2.43
- Compound: "CCOC(=O)c1cc2cc(-c3ccncc3)ccc2[nH]1"
  Target Or System: "CYP125 (Mycobacterium tuberculosis, UniProt P9WPP1)"
  Measured Quantity: "log10 of Kd"
  Result Value: 0.48
- Compound: "Cc1nnc(-c2cc3cc(-c4ccncc4)ccc3n2CCC2CCNCC2)o1"
  Target Or System: "CYP125 (Mycobacterium tuberculosis, UniProt P9WPP1)"
  Measured Quantity: "log10 of Kd"
  Result Value: 1.01
- Compound: "NCc1ccc(-c2cnns2)cc1"
  Target Or System: "CYP125 (Mycobacterium tuberculosis, UniProt P9WPP1)"
  Measured Quantity: "log10 of Kd"
  Result Value: 1.76
- Compound: "CCOC(=O)c1cc2cc(-c3ccncc3)ccc2n1CC1CCCCC1"
  Target Or System: "CYP125 (Mycobacterium tuberculosis, UniProt P9WPP1)"
  Measured Quantity: "log10 of Kd"
  Result Value: -0.51

====

Quick reference for pKd among some compounds
# Target Or System: CYP142 (Mycobacterium tuberculosis, UniProt P9WPL5)
# Sequence (P9WPL5 2-398): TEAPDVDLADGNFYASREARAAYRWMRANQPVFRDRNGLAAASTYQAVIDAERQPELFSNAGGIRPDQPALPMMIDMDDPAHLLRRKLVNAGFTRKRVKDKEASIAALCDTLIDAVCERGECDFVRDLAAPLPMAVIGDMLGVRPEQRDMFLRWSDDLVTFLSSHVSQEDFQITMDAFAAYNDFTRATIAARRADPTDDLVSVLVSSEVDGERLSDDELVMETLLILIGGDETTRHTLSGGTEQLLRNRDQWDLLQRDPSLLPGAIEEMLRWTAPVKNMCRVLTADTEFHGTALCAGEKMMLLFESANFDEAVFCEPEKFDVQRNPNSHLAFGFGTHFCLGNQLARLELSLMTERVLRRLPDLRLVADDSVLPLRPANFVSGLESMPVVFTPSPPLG
# Assay Summary: biochemical
# Run Parameters: UV-Vis spectroscopy
pKd: −log10 of the molar value.
Measured Quantity: pKd

- Compound: "COC(=O)c1cccc(-c2ccncc2)c1"
  Target Or System: "CYP142 (Mycobacterium tuberculosis, UniProt P9WPL5)"
  Measured Quantity: "pKd"
  Result Value: 5.82
- Compound: "CCOC(=O)c1cc2cc(-c3ccncc3)ccc2[nH]1"
  Target Or System: "CYP142 (Mycobacterium tuberculosis, UniProt P9WPL5)"
  Measured Quantity: "pKd"
  Result Value: 6.12
- Compound: "NCc1ccc(-c2cnns2)cc1"
  Target Or System: "CYP142 (Mycobacterium tuberculosis, UniProt P9WPL5)"
  Measured Quantity: "pKd"
  Result Value: 6.21
- Compound: "COc1ccc(-c2ccncc2)cc1"
  Target Or System: "CYP142 (Mycobacterium tuberculosis, UniProt P9WPL5)"
  Measured Quantity: "pKd"
  Result Value: 5.80
- Compound: "CCOC(=O)c1cc2cc(-c3ccncc3)ccc2n1CC1CCNCC1"
  Target Or System: "CYP142 (Mycobacterium tuberculosis, UniProt P9WPL5)"
  Measured Quantity: "pKd"
  Result Value: 6.15
- Compound: "CCOC(=O)c1cc2cc(-c3ccncc3)ccc2n1CCC1CCNCC1"
  Target Or System: "CYP142 (Mycobacterium tuberculosis, UniProt P9WPL5)"
  Measured Quantity: "pKd"
  Result Value: 6.41
- Compound: "NC(=O)c1cc2cc(-c3ccncc3)ccc2n1CCN1CCNCC1"
  Target Or System: "CYP142 (Mycobacterium tuberculosis, UniProt P9WPL5)"
  Measured Quantity: "pKd"
  Result Value: 5.60
- Compound: "CCOC(=O)c1cc2cc(-c3ccncc3)ccc2n1CC1CCCCC1"
  Target Or System: "CYP142 (Mycobacterium tuberculosis, UniProt P9WPL5)"
  Measured Quantity: "pKd"
  Result Value: 7.30
- Compound: "CCOC(=O)c1cc2cc(-c3ccncc3)ccc2n1CC1CCC1"
  Target Or System: "CYP142 (Mycobacterium tuberculosis, UniProt P9WPL5)"
  Measured Quantity: "pKd"
  Result Value: 7.05
